What pIC50 was measured for each of the following?
- Run Description: Inhibition of Mycobacterium smegmatis MC2 155 recombinant type II NADH dehydrogenase ndh expressed in Escherichia coli assessed as rate of NADH oxidation in the presence of an electron acceptor menadione
# log scale: pIC50 equals minus log10 of the concentration in mol/L

// query What measured pIC50 goes with CC(C)[C@H]1CO[C@]23CCN(Cc4ccc(C(F)(F)F)nc4)C[C@H]2CCC(=O)N13 ?
// result 7.06

// query What measured pIC50 goes with CC(C)[C@H]1CO[C@]23CCN(Cc4ccc(Cl)cc4)C[C@H]2CCC(=O)N13 ?
// result 7.38

// query What measured pIC50 goes with COc1ccc(CN2CC[C@]34OC[C@H](C(C)C)N3C(=O)CC[C@@H]4C2)cc1 ?
// result 6.05
